- assay.system: unrelated Fc-fused recombinant protein
- assay.explanation: ELISA, negative control Fc protein
Outcome label depends on ELISA Fc Control (RLU) relative to 3000 RLU: at/above gives true, below gives false.

Worked cases, answers included:
{"binder": "ISOP193GR9P1F6 (designed binder, not shown: small tags and cut ends) LPAPKNLVVSRVTEDSARLSWTAPDAAFDSFEIDYWEVESEGEAIVLFVPGSERSYDLTGLKPGTEYHVHIVGVKGGTPSYPLWADFTT", "group.label": "false"}
{"binder": "ISOP193FR9P1G8 (designed binder, not shown: small tags and cut ends) LPAPKNLVVSRVTEDSARLSWTAPDAAFDSFEIYYFENELGGEAIVLTVPGSERSYDLTGLKPGTEYLVTIYGVKGCDWSDPLSAIFTT", "group.label": "true"}
{"binder": "ISOP193FR9P1G10 (designed binder, not shown: small tags and cut ends) LPAPKNLVVSRVTEDSARLSWTAPDAAFDSFTIYYFENENGGEAIVLTVPGSERSYDLTGLKPGTEYLVTIYGVKGGHWSRPLSAIFTT", "group.label": "false"}
{"binder": "ISOP193FR9P1C1 (designed binder, not shown: small tags and cut ends) LPAPKNLVVSRVTEDSARLSWTAPDAAFDSFEIYYFENENGGEAIVLTVPGSERSYDLTGLKPGTEYLVTIYGVKGCDWSDPLSAIFTT", "group.label": "true"}
{"binder": "ISOP193BR9P1E6 (designed binder, not shown: small tags and cut ends) LPAPKNLVVSRVTEDSARLSWGAITALFDSFLIQYQESEKVGEAIVLTVPGSERSYDLTGLKPGTEYTVSIYGVKFPYYYATADSNPLSAIFTT", "group.label": "false"}

[Q] I'd appreciate it if you could say whether ISOP193BR9P1G2 (designed binder, not shown: small tags and cut ends) LPAPKNLVVSRVTEDSARLSWAGHYRKIRNFDSFLIQYQESEKVGEAIVLTVPGSERSYDLTGLKPGTEYTVSIYGVAEHWYYATQDSNPLSAIFTT has ELISA Fc Control (RLU) at least equal to 3000 RLU.
[A] true

[Q] I'd appreciate it if you could say whether ISOP193ER9P1F11 (designed binder, not shown: small tags and cut ends) LPAPKNLVVSRVTEDSARLSWTAPDAAFDSFAIQYQEYVAHGEAIVLTVPGSERSYDLTGLKPGTEYHVRISGVKGGGVSWPLSAISTT has ELISA Fc Control (RLU) at least equal to 3000 RLU.
[A] false

[Q] I'd appreciate it if you could say whether ISOP193ER9P1C10 (designed binder, not shown: small tags and cut ends) LLAPKNLVVSRVTEDSARLSWIAPDAAFDSFEIYYKELRAEGEAIVLTVPGSERSYDLTGLKPGTEYLVTIYGVKGGSVSIPLSAIFTT has ELISA Fc Control (RLU) at least equal to 3000 RLU.
[A] false

[Q] I'd appreciate it if you could say whether ISOP193HR9P1G10 (designed binder, not shown: small tags and cut ends) LPAPKNLVVSRVTEDSARLSWTAPDAAFDSFEIYYFELRLGGEAIVLTVPGSERSYDLTGLKPGTEYLVTIYGVKGGDYSPPLSAISTT has ELISA Fc Control (RLU) at least equal to 3000 RLU.
[A] false

[Q] I'd appreciate it if you could say whether ISOP193GR9P1F7 (designed binder, not shown: small tags and cut ends) LPAPKNLVVSRVTEDSARLSWTAPDAAFDSFDIPYVEYYPSGEAIVLNVPGSERSYDLTGLKPGTEYGVTIWGIKGGNESVPLTARFTT has ELISA Fc Control (RLU) at least equal to 3000 RLU.
[A] false

[Q] I'd appreciate it if you could say whether ISOP193AR9P1F9 (designed binder, not shown: small tags and cut ends) LPAPKNLVVSRVTEDSARLSWPLFASDLNIFDSFLIQYQESEKVGEAIVLTVPGSERSYDLTGLKPGTEYTVSIYGVGRHYTVYDSNPLSAIFTT has ELISA Fc Control (RLU) at least equal to 3000 RLU.
[A] false
